# Tested on: PIP tumor and PC3 tumor
# ASSAY: Biodistribution of 125I labeled compounds 17, 18, 26 and 27 in tumor bearing nude mice
# Assay type: in vivo
# CONDITION_LABEL: 4 h
READOUT_NAME: Biodistribution: Blood (% ID/g)
Numbers only, in % ID/g.

Please review the entries below; each comes with its answer.
COMPOUND	UNITS_TEXT	MEASUREMENT
O=C(O)CC[C@H](NC(=O)N[C@@H](CCCCNC(=O)[C@H](Cc1ccccc1)NC(=O)COc1ccc(C[C@H](NC(=O)[C@H](CCC(=O)O)NC(=O)[C@H](CCC(=O)O)NC(=O)c2ccc([125I])cc2)C(=O)O)cc1)C(=O)O)C(=O)O [[^125I]27]	% ID/g	0.32
O=C(O)CC[C@H](NC(=O)N[C@@H](CCCCNC(=O)[C@H](Cc1ccccc1)NC(=O)[C@H](CCC(=O)O)NC(=O)c1ccc([125I])cc1)C(=O)O)C(=O)O [[^125I]17]	% ID/g	0.09
O=C(O)CC[C@H](NC(=O)N[C@@H](CCCCNC(=O)[C@H](Cc1ccccc1)NC(=O)[C@H](CCC(=O)O)NC(=O)[C@H](CCC(=O)O)NC(=O)c1ccc([125I])cc1)C(=O)O)C(=O)O [[^125I]18]	% ID/g	0.33

The recorded Biodistribution: Blood for entry O=C(O)CC[C@H](NC(=O)N[C@@H](CCCCNC(=O)[C@H](Cc1ccccc1)NC(=O)COc1ccc(C[C@H](NC(=O)[C@H](CCC(=O)O)NC(=O)c2ccc([125I])cc2)C(=O)O)cc1)C(=O)O)C(=O)O [[^125I]26] equals 0.21

* * *

# Test system: PIP tumor and PC3 tumor
# ASSAY: Biodistribution of 125I labeled compounds 17, 18, 26 and 27 in tumor bearing nude mice
# Assay type: in vivo
# CONDITION_LABEL: 1 h
READOUT_NAME: Biodistribution: Kidney (% ID/g)
Numbers only, in % ID/g.

The cases that follow already have their Biodistribution: Kidney on record.
MOLECULE	UNITS_TEXT	MEASUREMENT
O=C(O)CC[C@H](NC(=O)N[C@@H](CCCCNC(=O)[C@H](Cc1ccccc1)NC(=O)COc1ccc(C[C@H](NC(=O)[C@H](CCC(=O)O)NC(=O)[C@H](CCC(=O)O)NC(=O)c2ccc([125I])cc2)C(=O)O)cc1)C(=O)O)C(=O)O [[^125I]27]	% ID/g	127.77
O=C(O)CC[C@H](NC(=O)N[C@@H](CCCCNC(=O)[C@H](Cc1ccccc1)NC(=O)COc1ccc(C[C@H](NC(=O)[C@H](CCC(=O)O)NC(=O)c2ccc([125I])cc2)C(=O)O)cc1)C(=O)O)C(=O)O [[^125I]26]	% ID/g	174.61
O=C(O)CC[C@H](NC(=O)N[C@@H](CCCCNC(=O)[C@H](Cc1ccccc1)NC(=O)[C@H](CCC(=O)O)NC(=O)c1ccc([125I])cc1)C(=O)O)C(=O)O [[^125I]17]	% ID/g	41.44

Now consider a different molecule.
The value of Biodistribution: Kidney measured for the molecule O=C(O)CC[C@H](NC(=O)N[C@@H](CCCCNC(=O)[C@H](Cc1ccccc1)NC(=O)[C@H](CCC(=O)O)NC(=O)[C@H](CCC(=O)O)NC(=O)c1ccc([125I])cc1)C(=O)O)C(=O)O [[^125I]18] turned out to be 96.21
